- System: SK-MEL-2
- TEST_SUMMARY: Growth inhibition of human SK-MEL-2 cells assessed as cell growth at 10^-5 M incubated for 48 hrs by sulforhodamine B assay relative to control
- Format: functional
- CONDITION_LABEL: SK-MEL-2, 48 h, read-out: Activity
Measured growth at 10 µM, listed per entry.
Report the value in % with no unit label.

Example compounds with recorded growth at 10 µM:
>>> df
                                  structure  parameter_measured  units_symbol  measured_result
0  O=C1NC(=O)C(=Cc2cccn2CCCCn2c3ccccc3c(=O)c3ccccc32)C(=O)N1     growth at 10 µM             %             92.9
1  O=C1/C(=C\c2cccn2CCCCCCn2c3ccccc3c(=O)c3ccccc32)c2ccccc2N1c1c(Cl)cccc1Cl     growth at 10 µM             %             98.8
2  O=C1Nc2ccccc2/C1=C/c1cccn1CCCCCCn1c2ccccc2c(=O)c2ccccc21     growth at 10 µM             %             86.2

Field request: growth at 10 µM | item: O=C1Nc2ccccc2/C1=C/c1cccn1CCCCCn1c2ccccc2c(=O)c2ccccc21
84

Field request: growth at 10 µM | item: O=C1NC(=O)C(=Cc2cccn2CCCn2c3ccccc3c(=O)c3ccccc32)C(=O)N1
109

Field request: growth at 10 µM | item: O=C1/C(=C\c2cccn2CCCCn2c3ccccc3c(=O)c3ccccc32)c2ccccc2N1c1c(Cl)cccc1Cl
105

Field request: growth at 10 µM | item: O=C1Nc2ccccc2/C1=C/c1cccn1CCCCn1c2ccccc2c(=O)c2ccccc21
84

Field request: growth at 10 µM | item: O=C1/C(=C\c2cccn2CCCCCn2c3ccccc3c(=O)c3ccccc32)c2ccccc2N1c1c(Cl)cccc1Cl
101

Field request: growth at 10 µM | item: O=C1NC(=O)C(=Cc2cccn2CCCCCn2c3ccccc3c(=O)c3ccccc32)C(=O)N1
107

Field request: growth at 10 µM | item: O=C1NC(=O)C(=Cc2cccn2CCCCCCn2c3ccccc3c(=O)c3ccccc32)C(=O)N1
107

---

- Tested on: SF-539
- TEST_SUMMARY: Growth inhibition of human SF539 cells assessed as cell growth at 10^-5 M incubated for 48 hrs by sulforhodamine B assay relative to control
- Format: functional
- CONDITION_LABEL: SF-539, 48 h, read-out: Activity
PARAMETER_MEASURED: growth at 10 µM (%)
Report the value in % with no unit label.

                                  structure  measured_result
0  O=C1NC(=O)C(=Cc2cccn2CCCCCn2c3ccccc3c(=O)c3ccccc32)C(=O)N1              102
1  O=C1/C(=C\c2cccn2CCCCn2c3ccccc3c(=O)c3ccccc32)c2ccccc2N1c1c(Cl)cccc1Cl             98.9
2  O=C1/C(=C\c2cccn2CCCCCn2c3ccccc3c(=O)c3ccccc32)c2ccccc2N1c1c(Cl)cccc1Cl               97
3  O=C1NC(=O)C(=Cc2cccn2CCCCn2c3ccccc3c(=O)c3ccccc32)C(=O)N1             85.4

Field request: growth at 10 µM | item: O=C1NC(=O)C(=Cc2cccn2CCCn2c3ccccc3c(=O)c3ccccc32)C(=O)N1
102

Field request: growth at 10 µM | item: O=C1Nc2ccccc2/C1=C/c1cccn1CCCCCCn1c2ccccc2c(=O)c2ccccc21
100

Field request: growth at 10 µM | item: O=C1Nc2ccccc2/C1=C/c1cccn1CCCCn1c2ccccc2c(=O)c2ccccc21
93

---

- System: HCT-116
- TEST_SUMMARY: Growth inhibition of human HCT116 cells assessed as cell growth at 10^-5 M incubated for 48 hrs by sulforhodamine B assay relative to control
- Format: functional
- CONDITION_LABEL: HCT-116, 48 h, read-out: Activity
PARAMETER_MEASURED: growth at 10 µM (%)
Report the value in % with no unit label.

                                  structure  experimental_target  measured_result
0  O=C1/C(=C\c2cccn2CCCCCCn2c3ccccc3c(=O)c3ccccc32)c2ccccc2N1c1c(Cl)cccc1Cl              HCT-116              103
1  O=C1NC(=O)C(=Cc2cccn2CCCCCn2c3ccccc3c(=O)c3ccccc32)C(=O)N1              HCT-116             82.2
2  O=C1Nc2ccccc2/C1=C/c1cccn1CCCCn1c2ccccc2c(=O)c2ccccc21              HCT-116             74.2
3  O=C1NC(=O)C(=Cc2cccn2CCCn2c3ccccc3c(=O)c3ccccc32)C(=O)N1              HCT-116               86
4  O=C1Nc2ccccc2/C1=C/c1cccn1CCCCCn1c2ccccc2c(=O)c2ccccc21              HCT-116             69.8
5  O=C1Nc2ccccc2/C1=C/c1cccn1CCCCCCn1c2ccccc2c(=O)c2ccccc21              HCT-116             70.4

Value wanted: growth at 10 µM (HCT-116) of entry O=C1/C(=C\c2cccn2CCCCCn2c3ccccc3c(=O)c3ccccc32)c2ccccc2N1c1c(Cl)cccc1Cl
85.9

Value wanted: growth at 10 µM (HCT-116) of entry O=C1NC(=O)C(=Cc2cccn2CCCCCCn2c3ccccc3c(=O)c3ccccc32)C(=O)N1
71.2

Value wanted: growth at 10 µM (HCT-116) of entry O=C1/C(=C\c2cccn2CCCCn2c3ccccc3c(=O)c3ccccc32)c2ccccc2N1c1c(Cl)cccc1Cl
98.4

Value wanted: growth at 10 µM (HCT-116) of entry O=C1NC(=O)C(=Cc2cccn2CCCCn2c3ccccc3c(=O)c3ccccc32)C(=O)N1
76.7

---

- Test system: Malme-3M
- TEST_SUMMARY: Growth inhibition of human MALME-3M cells assessed as cell growth at 10^-5 M incubated for 48 hrs by sulforhodamine B assay relative to control
- Type: functional
- CONDITION_LABEL: read-out: Activity
Measured growth at 10 µM, listed per entry.
Report the value in % with no unit label.

Example compounds with recorded growth at 10 µM:
>>> df
                                  structure  parameter_measured  measured_result
0  O=C1NC(=O)C(=Cc2cccn2CCCCn2c3ccccc3c(=O)c3ccccc32)C(=O)N1     growth at 10 µM             95.6
1  O=C1/C(=C\c2cccn2CCCCCCn2c3ccccc3c(=O)c3ccccc32)c2ccccc2N1c1c(Cl)cccc1Cl     growth at 10 µM              102
2  O=C1NC(=O)C(=Cc2cccn2CCCn2c3ccccc3c(=O)c3ccccc32)C(=O)N1     growth at 10 µM              114

Field request: growth at 10 µM | item: O=C1/C(=C\c2cccn2CCCCn2c3ccccc3c(=O)c3ccccc32)c2ccccc2N1c1c(Cl)cccc1Cl
106

Field request: growth at 10 µM | item: O=C1/C(=C\c2cccn2CCCCCn2c3ccccc3c(=O)c3ccccc32)c2ccccc2N1c1c(Cl)cccc1Cl
108

Field request: growth at 10 µM | item: O=C1Nc2ccccc2/C1=C/c1cccn1CCCCn1c2ccccc2c(=O)c2ccccc21
91.9

Field request: growth at 10 µM | item: O=C1NC(=O)C(=Cc2cccn2CCCCCn2c3ccccc3c(=O)c3ccccc32)C(=O)N1
119

Field request: growth at 10 µM | item: O=C1NC(=O)C(=Cc2cccn2CCCCCCn2c3ccccc3c(=O)c3ccccc32)C(=O)N1
112

Field request: growth at 10 µM | item: O=C1Nc2ccccc2/C1=C/c1cccn1CCCCCn1c2ccccc2c(=O)c2ccccc21
84.5

Field request: growth at 10 µM | item: O=C1Nc2ccccc2/C1=C/c1cccn1CCCCCCn1c2ccccc2c(=O)c2ccccc21
90.7

---

- Test system: A549
- TEST_SUMMARY: Growth inhibition of human A549/ATCC cells assessed as cell growth at 10^-5 M incubated for 48 hrs by sulforhodamine B assay relative to control
- Type: functional
- CONDITION_LABEL: A549, 48 h, read-out: Activity
growth at 10 µM under 90% gets t, anything at or over 90% gets f.

Check if growth at 10 µM falls below 90% for O=C1NC(=O)C(=Cc2cccn2CCCn2c3ccccc3c(=O)c3ccccc32)C(=O)N1 .
f

Check if growth at 10 µM falls below 90% for O=C1Nc2ccccc2/C1=C/c1cccn1CCCCn1c2ccccc2c(=O)c2ccccc21 .
t

Check if growth at 10 µM falls below 90% for O=C1NC(=O)C(=Cc2cccn2CCCCCn2c3ccccc3c(=O)c3ccccc32)C(=O)N1 .
f

Check if growth at 10 µM falls below 90% for O=C1NC(=O)C(=Cc2cccn2CCCCn2c3ccccc3c(=O)c3ccccc32)C(=O)N1 .
f

Check if growth at 10 µM falls below 90% for O=C1/C(=C\c2cccn2CCCCCn2c3ccccc3c(=O)c3ccccc32)c2ccccc2N1c1c(Cl)cccc1Cl .
t

Check if growth at 10 µM falls below 90% for O=C1NC(=O)C(=Cc2cccn2CCCCCCn2c3ccccc3c(=O)c3ccccc32)C(=O)N1 .
f

Check if growth at 10 µM falls below 90% for O=C1/C(=C\c2cccn2CCCCCCn2c3ccccc3c(=O)c3ccccc32)c2ccccc2N1c1c(Cl)cccc1Cl .
f

Check if growth at 10 µM falls below 90% for O=C1Nc2ccccc2/C1=C/c1cccn1CCCCCn1c2ccccc2c(=O)c2ccccc21 .
t

Check if growth at 10 µM falls below 90% for O=C1/C(=C\c2cccn2CCCCn2c3ccccc3c(=O)c3ccccc32)c2ccccc2N1c1c(Cl)cccc1Cl .
f
